Cited source: ChEMBL document CHEMBL4390649

assay.explanation: Antioxidant activity assessed as ABTS radical scavenging activity measured after 15 mins by UV-Visible spectrophotometric based assay
Type: functional
Please use True for IC50 under 10 µM and False for everything else, ties included.

Record excerpt, results attached:
Lookup: Please let me know if CS(=O)(=O)[O-].O=C(CCc1cc(O)c(O)c(O)c1)NCCCCCCCCCC[P+](c1ccccc1)(c1ccccc1)c1ccccc1 shows IC50 below 10 µM.
Found: False

Lookup: Lab note: IC50 threshold 10 µM. Does this compound come in strictly under it? O=C(O)CCc1ccc(O)c(O)c1 [DIHYDROCAFFEIC ACID]
Found: False

Lookup: Does the reported IC50 of the following compound sit strictly below 10 µM? O=C(NCCCCCC[P+](c1ccccc1)(c1ccccc1)c1ccccc1)c1ccc(O)c(O)c1
Found: False

Lookup: Hello, I'm reviewing records and need to know if IC50 of CS(=O)(=O)[O-].O=C(Cc1cc(O)c(O)c(O)c1)NCCCCCC[P+](c1ccccc1)(c1ccccc1)c1ccccc1 is below 10 µM. Could you check?
Found: True

Lookup: Take the compound O=C(O)/C=C/c1cc(O)c(O)c(O)c1 and say whether its IC50 is less than 10 µM.
Found: True

Lookup: Given the entry O=C(NCCCCCCCCCC[P+](c1ccccc1)(c1ccccc1)c1ccccc1)c1ccc(O)c(O)c1.[Br-] , would its reported IC50 be below 10 µM?
Found: False

Lookup: Find out if reported IC50 for O=C(NCCCCCCCCCC[P+](c1ccccc1)(c1ccccc1)c1ccccc1)c1cc(O)c(O)c(O)c1 is less than 10 µM
Found: True

Could you now look at the following compound, please?
Lookup: Given the entry O=C(O)CCc1cc(O)c(O)c(O)c1 , would its reported IC50 be below 10 µM?
Found: True
